- tgt: HSV-1 ribonucleotide reductase (Human herpesvirus 1, UniProt P08543)
- Construct: HSV-1 ribonucleotide reductase (partially purified) was obtained from quiescent BHK-21/C13 cells infected with strain F HSV-1 virus; made in house; host or cells: quiescent BHK-21/C13 cells infected with HSV-1 strain F (virus-encoded enzyme, partially purified)
- Sequence (P08543 whole entry): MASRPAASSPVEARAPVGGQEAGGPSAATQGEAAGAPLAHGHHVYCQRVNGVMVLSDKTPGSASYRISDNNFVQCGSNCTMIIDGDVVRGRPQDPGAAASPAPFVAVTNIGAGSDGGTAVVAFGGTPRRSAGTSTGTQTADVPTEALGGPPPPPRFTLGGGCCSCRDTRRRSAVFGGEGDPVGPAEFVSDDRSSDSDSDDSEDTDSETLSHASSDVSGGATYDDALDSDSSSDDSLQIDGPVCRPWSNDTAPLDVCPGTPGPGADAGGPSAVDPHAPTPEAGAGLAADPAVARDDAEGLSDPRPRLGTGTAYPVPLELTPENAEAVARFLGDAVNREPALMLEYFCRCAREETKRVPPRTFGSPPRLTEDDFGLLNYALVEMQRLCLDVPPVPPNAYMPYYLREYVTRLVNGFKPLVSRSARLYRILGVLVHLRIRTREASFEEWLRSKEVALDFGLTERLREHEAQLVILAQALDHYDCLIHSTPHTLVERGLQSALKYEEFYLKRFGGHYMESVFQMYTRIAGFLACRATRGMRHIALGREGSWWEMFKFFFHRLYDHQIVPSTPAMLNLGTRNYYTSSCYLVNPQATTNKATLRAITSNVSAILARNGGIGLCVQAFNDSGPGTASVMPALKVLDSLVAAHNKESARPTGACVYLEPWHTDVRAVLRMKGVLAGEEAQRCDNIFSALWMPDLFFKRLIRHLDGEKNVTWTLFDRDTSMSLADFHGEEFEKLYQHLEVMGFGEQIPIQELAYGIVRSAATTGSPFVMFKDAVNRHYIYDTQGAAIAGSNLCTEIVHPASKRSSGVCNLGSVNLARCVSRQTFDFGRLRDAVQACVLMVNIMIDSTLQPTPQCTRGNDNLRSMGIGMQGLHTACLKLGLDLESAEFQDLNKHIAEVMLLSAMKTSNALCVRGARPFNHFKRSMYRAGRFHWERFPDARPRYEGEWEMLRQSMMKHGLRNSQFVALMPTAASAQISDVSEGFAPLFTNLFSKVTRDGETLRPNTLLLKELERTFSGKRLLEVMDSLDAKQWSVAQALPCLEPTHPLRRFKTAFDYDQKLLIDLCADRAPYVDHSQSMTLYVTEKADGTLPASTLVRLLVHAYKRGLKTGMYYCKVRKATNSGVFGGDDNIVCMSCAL
- experimental_protocol: Inhibition of Herpes Simplex Virus (HSV-1) ribonucleotide reductase
- Format: biochemical
- applied_conditions: Table IV; assay of example 10
test_readout: IC50 (nM)
Numbers only here, please. The scale is nM.

Report measured IC50 on HSV-1 ribonucleotide reductase (Human herpesvirus 1, UniProt P08543); entry: CCCC(CCC)NC(=O)NC(C(=O)CC(CC(=O)C(C)(C)C)C(=O)NC(C(=O)NC(C)(C)C(C)(C)C)C1(C(=O)O)CCCC1)C(C)(C)C (stereo not drawn) 510

Report measured IC50 on HSV-1 ribonucleotide reductase (Human herpesvirus 1, UniProt P08543); entry: CCCC(CCC)NC(=O)NC(C(=O)CC(CC(=O)C(C)(C)C)C(=O)NC(C(=O)NC(C)CC(C)(C)C)C1(C(=O)O)CCCC1)C(C)(C)C [Pr2CHNHC(O) / NH-(R)-CH(Me)CH2CMe3] 370

Report measured IC50 on HSV-1 ribonucleotide reductase (Human herpesvirus 1, UniProt P08543); entry: CCCC(CCC)NC(=O)NC(C(=O)CC(CC(=O)C(C)(C)C)C(=O)NC(C(=O)NC(CO)C(C)(C)C)C1(C(=O)O)CCCC1)C(C)(C)C [Pr2CHNHC(O) / NH-(S)-CH(CMe3)CH2OH] 230

Report measured IC50 on HSV-1 ribonucleotide reductase (Human herpesvirus 1, UniProt P08543); entry: C=CCC(CC=C)NC(=O)NC(C(=O)CC(CC(=O)C(C)(C)C)C(=O)NC(C(=O)NC(C)C(C)(C)C)C1(C(=O)O)CCCC1)C(C)(C)C (stereo not drawn) 320

Report measured IC50 on HSV-1 ribonucleotide reductase (Human herpesvirus 1, UniProt P08543); entry: CCCC(CCC)NC(=O)NC(C(=O)CC(CC(=O)C(C)(C)C)C(=O)NC(C(=O)NC1CCCCC1C)C1(C(=O)O)CCCC1)C(C)(C)C (stereo not drawn) 670

Report measured IC50 on HSV-1 ribonucleotide reductase (Human herpesvirus 1, UniProt P08543); entry: CCCC(CCC)NC(=O)NC(C(=O)CC(CC(=O)C(C)(C)C)C(=O)NC(C(=O)NCC(C)(C)CCC)C1(C(=O)O)CCCC1)C(C)(C)C (stereo not drawn) 420
